Data credit: patent US20140371165A1

# MEASUREMENT DESCRIPTION: Solubility in organic solvents
# Assay type: physicochemical
# STATED CONDITIONS: volume of methanol for 5 milligram
REPORTED ENDPOINT: 5 milligram solubility in methanol (µL)

Here is how some molecules turned out for 5 milligram solubility in methanol.
[
  {
    "MOLECULE": "COc1ccc(-c2cc([C@@H](O)[C@H]3CCCCN3)c3ccccc3n2)cc1.Cl (single isomer, unassigned) [NSC23925c]",
    "UNIT OF MEASUREMENT": "µL",
    "MEASUREMENT": 150
  },
  {
    "MOLECULE": "COc1ccc(-c2cc([C@H](O)[C@H]3CCCCN3)c3ccccc3n2)cc1 [NSC23925b]",
    "UNIT OF MEASUREMENT": "µL",
    "MEASUREMENT": 450
  }
]

[1] COc1ccc(-c2cc([C@H](O)[C@@H]3CCCCN3)c3ccccc3n2)cc1.Cl (single isomer, unassigned) [NSC23925d]
[2] COc1ccc(-c2cc([C@@H](O)[C@@H]3CCCCN3)c3ccccc3n2)cc1.Cl [NSC23925a]
Ask: Could you please tell me which of these two has the higher 5 milligram solubility in methanol: 1 or 2 ? Indicate your choice by writing its label.
Result: 2

* * *

# System: SKOV-3TR
# MEASUREMENT DESCRIPTION: MTT cytotoxicity assay and reversal of MDR in SKOV-3TR
# Assay type: cell-based, human
# STATED CONDITIONS: Homo sapiens, SKOV3TR, 144 h, without NSC23925b, MTT, 6 days, read-out: IC50 of chemotherapy drug alone
REPORTED ENDPOINT: IC50 (nM)
Unit nM implied. Number only.

[
  {
    "MOLECULE": "CC(=O)O[C@H]1C(=O)[C@@]2(C)[C@H]([C@H](OC(=O)c3ccccc3)[C@]3(O)C[C@H](OC(=O)[C@H](O)[C@@H](NC(=O)c4ccccc4)c4ccccc4)C(C)=C1C3(C)C)[C@]1(OC(C)=O)CO[C@@H]1C[C@@H]2O [Paclitaxel, reference compound]",
    "REPORTED ENDPOINT": "IC50",
    "UNIT OF MEASUREMENT": "nM",
    "MEASUREMENT": 570
  },
  {
    "MOLECULE": "COc1cccc2c1C(=O)c1c(O)c3c(c(O)c1C2=O)C[C@@](O)(C(=O)CO)C[C@@H]3O[C@H]1C[C@H](N)[C@H](O)[C@H](C)O1 [Doxorubicin, reference compound]",
    "REPORTED ENDPOINT": "IC50",
    "UNIT OF MEASUREMENT": "nM",
    "MEASUREMENT": 38500
  }
]

The record that follows has no IC50 shown yet.
Ask: Given the entry O=C1c2c(O)ccc(O)c2C(=O)c2c(NCCNCCO)ccc(NCCNCCO)c21 [Mitoxantrane, reference compound] , report its measured IC50.
Result: 460

* * *

# TARGET DESC: Pgp (Homo sapiens, UniProt P08183)
# Construct: multidrug resistant cells expressing high levels of Pgp rapidly extrude non-fluorescent calcein AM from the plasma membrane; endogenous in cells; host or cells: MCF-7adr and SW480TR drug-resistant cells
# Sequence (P08183 whole entry): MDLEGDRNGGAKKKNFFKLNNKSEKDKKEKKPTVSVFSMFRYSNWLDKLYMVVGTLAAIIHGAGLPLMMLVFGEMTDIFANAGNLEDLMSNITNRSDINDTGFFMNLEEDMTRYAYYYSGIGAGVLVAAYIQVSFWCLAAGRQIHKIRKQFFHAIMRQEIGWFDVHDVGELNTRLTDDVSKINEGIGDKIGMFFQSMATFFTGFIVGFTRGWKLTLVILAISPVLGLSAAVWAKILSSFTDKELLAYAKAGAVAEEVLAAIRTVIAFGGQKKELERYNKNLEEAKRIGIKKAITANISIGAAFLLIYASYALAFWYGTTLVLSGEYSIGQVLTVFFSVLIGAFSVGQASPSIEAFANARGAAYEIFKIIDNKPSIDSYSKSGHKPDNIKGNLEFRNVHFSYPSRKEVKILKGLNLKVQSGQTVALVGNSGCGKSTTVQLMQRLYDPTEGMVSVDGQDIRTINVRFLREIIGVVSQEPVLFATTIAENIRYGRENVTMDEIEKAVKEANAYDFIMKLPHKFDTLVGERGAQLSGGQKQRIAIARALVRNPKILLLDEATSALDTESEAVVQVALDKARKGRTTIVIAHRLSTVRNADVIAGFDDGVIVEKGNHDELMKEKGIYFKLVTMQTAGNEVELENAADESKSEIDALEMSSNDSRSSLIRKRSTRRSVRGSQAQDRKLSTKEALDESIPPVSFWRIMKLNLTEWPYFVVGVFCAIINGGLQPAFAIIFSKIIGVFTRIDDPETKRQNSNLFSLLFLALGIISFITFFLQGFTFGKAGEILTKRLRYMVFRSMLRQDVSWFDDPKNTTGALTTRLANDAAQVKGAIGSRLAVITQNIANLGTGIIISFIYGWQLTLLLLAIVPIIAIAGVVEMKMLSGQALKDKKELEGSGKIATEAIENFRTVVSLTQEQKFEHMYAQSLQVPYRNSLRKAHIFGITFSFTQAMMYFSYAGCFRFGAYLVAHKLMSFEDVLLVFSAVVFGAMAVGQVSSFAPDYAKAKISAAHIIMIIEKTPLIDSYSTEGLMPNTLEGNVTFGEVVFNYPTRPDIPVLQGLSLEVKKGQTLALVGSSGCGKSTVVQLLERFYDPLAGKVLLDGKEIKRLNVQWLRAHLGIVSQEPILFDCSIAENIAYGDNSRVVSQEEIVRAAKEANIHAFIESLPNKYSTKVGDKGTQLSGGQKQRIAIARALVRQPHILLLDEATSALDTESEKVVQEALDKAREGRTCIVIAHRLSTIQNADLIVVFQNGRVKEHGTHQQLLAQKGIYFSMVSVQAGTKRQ
# MEASUREMENT DESCRIPTION: Calcein AM drug efflux fluorescence microscopy assay (Vybrant multi-drug resistance kit)
# Format: cell-based
# STATED CONDITIONS: calcein AM; MCF-7adr and SW480TR cells; read-out: Half-maximal reversal of accumulation deficit
Where a name gives a salt, the structure may show the parent alone.
REPORTED ENDPOINT: EC50 (nM)
Unit nM implied. Number only.

Ask: Record COc1ccc(-c2cc([C@H](O)[C@H]3CCCCN3)c3ccccc3n2)cc1 [NSC23925b, hydrochloride] : what is its EC50 with Pgp (Homo sapiens, UniProt P08183)?
Result: 100
